- Tested on: Zika virus NS2B-NS3 protease
- assay-comment: Primary screen GU AMC qHTS for Zika virus inhibitors (AID 1347154); further: nearly all actives have a fitted effect of over 70% in size
- experimental-setup: Zika NS2B-NS3 unlinked protease, AMC fluorogenic substrate; series mostly up to 54.1 µM
Inconclusive results are not listed. Active and inactive are the calls of the source. The call rests on the fitted dose curve; in most records, active means well fitted inhibition curve with a large enough effect; inconclusive means small, poorly fitted or top-dose-only effect; inactive means flat fitted curve, though single readings scatter.
Valid outcomes are listed here; reply with one: yes (active), no (inactive)

Enquiry: I'd appreciate the recorded outcome for Cc1ccc(Cl)c(OCC(O)CNC(C)(C)C)c1 (stereo not drawn) from this test.
Return: no

---

- assay-comment: qHTS of pediatric cancer cell lines to identify multiple opportunities for drug repurposing: Primary screen for OHS-50 cells (AID 1347103); further: nearly all actives have a fitted effect of over 40% in size
- experimental-setup: OHS-50 osteosarcoma viability, CellTiter-Glo luminescence, 48 h; series mostly up to 57.3 µM
Results filed as inconclusive are left out. Calls of active or inactive are those of the source. Calls follow the shape of the dose curve; as a rule, active = well fitted cell-killing curve with a large enough effect; inconclusive = small, poorly fitted or top-dose-only effect; inactive = no such curve, though single readings can be large or run the other way.
I would appreciate it if you answered using one of these outcomes: True (active), False (inactive)

Sample answers from the record:
[[record]]
compound = "Cc1c(F)cc2c(=O)c(C(=O)O)cn3c2c1CCC3C (stereo not drawn)"
class_label = "False"

[[record]]
compound = "CC(=O)N[C@@H](CCC(N)=O)C(=O)O"
class_label = "False"

[[record]]
compound = "CCOc1ccccc1OCC1CNCCO1 (stereo not drawn)"
class_label = "False"

[[record]]
compound = "Cc1cc(CCCOc2c(C)cc(-c3noc(C(F)(F)F)n3)cc2C)on1"
class_label = "True"

[[record]]
compound = "COCCOCC(OC)OC"
class_label = "False"

[[record]]
compound = "O=C1Nc2ccccc2C1(c1ccc(O)cc1)c1ccc(O)cc1"
class_label = "True"


Enquiry: Which outcome did this test record for the compound `C/C(=C1\CCOC(=O)S1)N(C=O)Cc1cnc(C)nc1N` ?
Return: False

Enquiry: Given `Cc1sccc1Br` , state the outcome it received in this test.
Return: False

Enquiry: How did this test come out for `Nc1nnnn1-c1ccccc1` ?
Return: False
